Reference source: PubChem BioAssay (NCI)

- Tested on: LOX IMVI melanoma
- TEST_SUMMARY: NCI tumour cell line growth inhibition, 48 h
Here, each record is paired with measured TGI data.

These solved cases illustrate the format of a correct answer.
MOLECULE | TGI
COc1cc2c3c(cc(Cl)nc3c1OC)C(O)(CC(C)=O)C(=O)N2 (configuration not stated) | 34.8 µM
COC(=O)C1(NC(=O)C(N)CC(=O)O)C(C)C1C (configuration not stated) | > 100 µM
N#CSCC1COc2ccccc2O1 (configuration not stated) | > 10 µM
C=C1c2nc3ccccc3n2C=C(c2ccc(Cl)cc2)N1c1ccccc1 | > 100 µM
CSc1nc2c(nc(N)n2C2OCC(O)C(O)C2O)c(=O)[nH]1 (configuration not stated) | > 100 µM

For "Oc1[nH]c2ccccc2c1N=NC(=S)N1CCCCCC1" the molecule record lists TGI as 2.41 µM

For "C(=C1\CCC/C(=C/c2ccccc2)C1=NNc1ccccc1)/c1ccccc1" the molecule record lists TGI as > 100 µM

====

- Test system: HOP-92 NSCLC
- TEST_SUMMARY: NCI tumour cell line growth inhibition, 48 h
Criterion: TGI meeting or surpassing 10 µM. Met: Satisfied. Not met: Not satisfied.

COMPOUND | TEST_SYSTEM | ASSIGNED_CATEGORY
O=C1C2C(C(=O)[N]1[Hg][c]1ccccc1)C1(Cl)C(Cl)=C(Cl)C2(Cl)C1(Cl)Cl (stereo not given) | HOP-92 NSCLC | Not satisfied
COC1=NN2C(OC)(c3ccccc3)c3c(-c4ccccc4)sc(-c4ccccc4)c3C2(c2ccccc2)S1 (stereo not given) | HOP-92 NSCLC | Satisfied
Cc1cc2nc3ccc(N=Nc4ccc(N(C)C)cc4)cc3n(-c3ccccc3)c-2cc1=N | HOP-92 NSCLC | Not satisfied
COc1ccc(-c2cc(-c3ccccc3)c(C#N)c(=O)[nH]2)cc1 | HOP-92 NSCLC | Satisfied
Cc1sc2nc(-c3ccccn3)c(/C=N/N=C(N)N)n2c1C | HOP-92 NSCLC | Satisfied

Has "NCCCn1c2c(c3ccc([N+](=O)[O-])cc3c1=O)C(=O)c1cc3c(cc1-2)OCO3" a recorded TGI greater than or equal to 10 µM?
Satisfied

Has COC(=O)c1ccc(C)cc1C1CN=NC12Cc1cc(C)c(C)cc1C2=O (stereo not given) a recorded TGI greater than or equal to 10 µM?
Satisfied

Has "COc1ccc2nc(-c3ccccc3)cc(Nc3ccc(/C(C)=N/O)cc3)c2c1" a recorded TGI greater than or equal to 10 µM?
Satisfied

Has COC(=O)C1(NC(=O)C(N)CC(=O)O)C(C)C1C (stereo not given) a recorded TGI greater than or equal to 10 µM?
Satisfied

Has "O=C1C[C@@H](c2ccccc2)NCCCCN(O)CCCN1" a recorded TGI greater than or equal to 10 µM?
Satisfied

====

- Test system: COLO 205 colon
- TEST_SUMMARY: NCI tumour cell line growth inhibition, 48 h; in the data active = GI50 below about 0.43 µM; inactive = the rest
A correct response names exactly one class from yes (active), no (inactive)

Worked set:
MOLECULE | ASSIGNED_CATEGORY
O=C1Nc2ccccc2C12CC(c1ccccc1)=NN2 (centres undefined) | no
O=C(Cc1ccccc1)Nc1nnc(CCSCCc2nnc(NC(=O)Cc3ccccc3)s2)s1 | no
Cc1cc(N(CCCNc2ccnc3cc(Cl)ccc23)Cc2cccs2)nc(Cl)n1 | no
Cc1cc(C)cc(Nc2nccc(-c3c(-c4ccc(F)cc4)ncn3C3CCNCC3)n2)c1 | no
O=C1CC(c2ccccc2)Cc2nc3ccc(Cl)cc3cc21 (centres undefined) | yes
COC(=O)c1[nH]nc(-c2ccccc2)c1N1CCCCC1 | no

How was "COc1cc2c(cc1OCCCCC(=O)Nc1ccc(-c3nc4ccccc4s3)cc1)N=C[C@@H]1CCCN1C2=O" classified in this test?
no

How was "Nc1c(C(=O)Nc2cccc3ccccc23)sc2nc3c(cc12)CCCC3" classified in this test?
no

How was "COc1ccc(/C=C/c2nc(N3CCOCC3)c3cc(F)c(F)cc3n2)cc1OC" classified in this test?
no

How was "COc1ccc2nc(-c3ccccc3)cc(Nc3ccc(/C(C)=N/O)cc3)c2c1" classified in this test?
no

How was COc1cc2c(cc1OCCCCCCNC(=O)c1cc3ccccc3[nH]1)N=CC1CCCN1C2=O (centres undefined) classified in this test?
no

How was O=C1C2C(C(=O)[N]1[Hg][c]1ccccc1)C1(Cl)C(Cl)=C(Cl)C2(Cl)C1(Cl)Cl (centres undefined) classified in this test?
no

====

- System: RXF 393 renal
- TEST_SUMMARY: NCI tumour cell line growth inhibition, 48 h
Here, each record is paired with measured TGI data.

These solved cases illustrate the format of a correct answer.
COMPOUND | TGI
C[C@]12CCC(=O)C=C1CC[C@@H]1[C@@H]2C(=O)C[C@@]2(C)[C@H]1CC[C@]2(O)C(=O)CO | > 100 µM
CC(=O)NC1C(OCc2ccccc2)OC(CO)C(O)C1OCC(=O)NC(C)C(=O)NC(CCC(=O)NCCCCCC(=O)Nc1ccc2c(c1)CN1C(=O)c3ccccc3C1=N2)C(N)=O (centres undefined) | > 100 µM
Cc1ccnc(NC(=S)Nc2ccccc2Cl)c1 | > 100 µM
COc1cc(NCC(C#N)C#N)ccc1N=Nc1ccc([N+](=O)[O-])cc1 | > 100 µM
O=C1Nc2ccccc2C12CC(c1ccccc1)=NN2 (centres undefined) | 36.6 µM
OC(COc1ccc(Cl)cc1Cl)CN1CCCC1 (centres undefined) | > 100 µM
C[C@H](CC[C@@H](O)C(C)(C)O)[C@H]1CC[C@@]2(C)[C@@H]3CC=C4[C@@H](CC[C@H](OC5OC(CO)C(O)C(O)C5O)C4(C)C)[C@]3(C)C(=O)C[C@]12C (some centres undefined) | > 100 µM
NC1=CC(=O)C(=O)c2cccnc21 | 27.2 µM

Next item in the queue.
For "N=C(N)n1[nH]c2c(c1=O)CCC2" the compound record lists TGI as > 100 µM

====

Here, each record is paired with measured TGI data.
- System: RXF 393 renal
- TEST_SUMMARY: NCI tumour cell line growth inhibition, 48 h
Report the figure in µM without appending any unit label.

SMILES_REPRESENTATION | TGI [µM]
N=C1N=C(N)c2cc3c(cc21)SCCSCCCSCCS3 | 41.3

TGI of "COc1cc2c(cc1OCCCCC(=O)Nc1ccc(-c3nc4ccccc4s3)cc1)N=C[C@@H]1CCCN1C2=O" , assay on RXF 393 renal, is 3.05

====

- System: SK-MEL-5 melanoma
- TEST_SUMMARY: NCI tumour cell line growth inhibition, 48 h; in the data active = GI50 below about 0.43 µM; inactive = the rest
A correct response names exactly one class from y for active, n for inactive

How was "COC(=O)[C@]12CC[C@@H](C)[C@H](C)[C@@H]1C1=CC[C@@H]3[C@@]4(C)C(c5ncon5)=C[C@@](C)(CO)C4=CC[C@@]3(C)[C@]1(C)CC2" classified in this test?
n

How was "NCCCn1c2c(c3ccc([N+](=O)[O-])cc3c1=O)C(=O)c1cc3c(cc1-2)OCO3" classified in this test?
y

====

- Test system: SW-620 colon
- TEST_SUMMARY: NCI tumour cell line growth inhibition, 48 h
Here, each record is paired with measured TGI data.
Report the figure in µM without appending any unit label.

These solved cases illustrate the format of a correct answer.
COMPOUND | TGI, µM
Cc1cc[c-]cc1.Fc1c[c-]c(-c2ccccn2)c(F)c1.N#CCC[PH+](CCC#N)c1ccccc1.[Pt+2] | 5.35
CC1(C)Oc2ccc(Cl)cc2C12CC2 | 30.9
CN(C)CCCNC(=O)c1cc2c3ccccc3[nH]c2c2ncccc12 | 33.4
Sc1nnc(-c2ccccc2Nc2ccccc2-c2nnc(S)n2-c2ccccc2)n1-c1ccccc1 | 81.9
Cc1cc2nc3n(c2cc1C)C(c1c(F)cccc1F)SC3 (stereo not given) | 50.9

For "COc1cc(/C=C/C(=O)c2c(C)n([O-])c3cc(C)c(C)cc3[n+]2=O)cc(OC)c1OC" the compound record lists TGI as 40.7

For "Oc1[nH]c2ccccc2c1N=NC(=S)N1CCCCCC1" the compound record lists TGI as 9.23

For "BrP(NC1CCCCCC1)(c1ccccc1)(c1ccccc1)c1ccccc1" the compound record lists TGI as 13.6

For "C=C(C)CC1=C(C(=S)NCCO[Si](C)(C)C(C)(C)C)C(OCC)(OCC)C1=O" the compound record lists TGI as 47

For "c1ccc(-c2n(Cc3ccc4ccccc4n3)c3ccccc3[n+]2Cc2ccc3ccccc3n2)cc1" the compound record lists TGI as 1.69

====

- Tested on: SF-539 CNS
- TEST_SUMMARY: NCI tumour cell line growth inhibition, 48 h
Here, each record is paired with measured TGI data.

MOLECULE | TGI
O=C1C2Cc3ccccc3CN2C(=O)N1CN1CCN(CN2C(=O)C3Cc4ccccc4CN3C2=O)CC1 (stereo not given) | > 100 µM
CC(=O)c1ccc(NC(=O)/C(=N\NC(N)=O)C(C#N)CC(C)(C)C=O)cc1 (stereo not given) | > 100 µM
CN(C)c1nc(N(C)C)nc(N(C)CN(C)c2nc(N(C)C)nc(N(C)C)n2)n1 | > 100 µM
CC1=CC(=O)c2cccc(NC3=NCCO3)c21 | > 100 µM
Cc1sc2nc(-c3ccccn3)c(/C=N/N=C(N)N)n2c1C | 50.8 µM
COc1cc(C/C=C/c2ccccc2)c(OC)cc1O | 37.6 µM
Cc1ccnc(NC(=S)Nc2ccccc2Cl)c1 | > 100 µM
O=C(Cc1ccccc1)Nc1nnc(CCSCCc2nnc(NC(=O)Cc3ccccc3)s2)s1 | > 100 µM

For CC1(C)CCc2cc3c(cc2O1)OC(C)(C)C1c2c(ccc4c2CCC(C)(C)O4)OC31 (stereo not given) the molecule record lists TGI as > 100 µM

For "CC(C)O/C=C1\C(=O)C2(SCCS2)[C@H]2CCCC[C@@H]12" the molecule record lists TGI as > 100 µM
